MEASUREMENT TARGET: T1, Human ST2-his (human, UniProt Q01638-2 19-328, limits assumed)
T1 construct: Expressed in CHO-K1; The printed range starts at Met1; also called human ST2 fused with a 6-histidine tag at the C-terminus
T1 sequence: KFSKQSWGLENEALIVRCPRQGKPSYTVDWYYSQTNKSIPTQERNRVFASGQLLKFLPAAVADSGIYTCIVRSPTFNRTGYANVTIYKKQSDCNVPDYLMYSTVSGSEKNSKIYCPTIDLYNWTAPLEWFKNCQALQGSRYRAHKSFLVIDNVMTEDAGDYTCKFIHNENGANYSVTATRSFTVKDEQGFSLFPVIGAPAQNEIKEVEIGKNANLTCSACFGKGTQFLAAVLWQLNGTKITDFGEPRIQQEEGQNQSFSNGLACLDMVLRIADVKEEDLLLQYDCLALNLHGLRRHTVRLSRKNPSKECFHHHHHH
ASSAY NAME: SPR Biacore X100, antibody captured on protein A chip, human ST2-his injected, pH 7.4
For each record, check the reported koff: if it is below 0.0002 s⁻¹ write yes, else write no.

Please review the entries below; each comes with its answer.
BINDER	CLASS
Control antibody CNTO7160 (antibody, human IgG4 S228P, kappa, V domains shown, Known anti-ST2 control antibody) VH: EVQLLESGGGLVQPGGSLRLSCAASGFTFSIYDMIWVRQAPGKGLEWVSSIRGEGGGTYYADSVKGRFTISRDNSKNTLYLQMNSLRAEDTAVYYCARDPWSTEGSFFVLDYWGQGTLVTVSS VL: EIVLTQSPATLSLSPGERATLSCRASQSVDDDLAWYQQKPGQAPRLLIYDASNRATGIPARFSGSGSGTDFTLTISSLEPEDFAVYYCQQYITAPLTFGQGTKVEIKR	yes
5887-41-H1L0 (antibody, human IgG4 S228P, kappa, V domains shown, Humanized antibody) VH: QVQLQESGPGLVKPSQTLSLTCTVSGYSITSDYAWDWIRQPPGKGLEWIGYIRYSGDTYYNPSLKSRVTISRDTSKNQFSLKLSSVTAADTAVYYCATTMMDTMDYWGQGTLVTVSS VL: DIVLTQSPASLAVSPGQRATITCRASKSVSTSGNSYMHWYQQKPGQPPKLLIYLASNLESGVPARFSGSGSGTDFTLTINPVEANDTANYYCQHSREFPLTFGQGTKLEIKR	yes
5886-156-H1L0 (antibody, human IgG4 S228P, kappa, V domains shown, Humanized antibody expressed in CHO-K1, purified by protein A) VH: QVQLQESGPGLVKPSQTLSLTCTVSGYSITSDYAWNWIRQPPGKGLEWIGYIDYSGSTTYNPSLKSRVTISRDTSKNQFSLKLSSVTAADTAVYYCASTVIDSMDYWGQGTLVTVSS VL: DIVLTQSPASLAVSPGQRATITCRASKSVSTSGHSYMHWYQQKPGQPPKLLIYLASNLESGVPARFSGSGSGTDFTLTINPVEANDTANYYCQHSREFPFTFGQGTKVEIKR	no
5886-156-H1L1 (antibody, human IgG4 S228P, kappa, V domains shown, Humanized antibody) VH: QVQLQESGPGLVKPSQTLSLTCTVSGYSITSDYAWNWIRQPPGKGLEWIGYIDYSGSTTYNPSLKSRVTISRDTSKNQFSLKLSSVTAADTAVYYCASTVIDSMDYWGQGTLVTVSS VL: DIVLTQSPASLAVSPGQRATITCRASKSVSTSGHSYMHWYQQKPGQPPKLLIYLASNLESGVPARFSGSGSGTDFTLTINPVEANDAANYYCQHSREFPFTFGQGTKVEIKR	no
5888-116-H0L1 (antibody, human IgG4 S228P, kappa, V domains shown, Humanized antibody) VH: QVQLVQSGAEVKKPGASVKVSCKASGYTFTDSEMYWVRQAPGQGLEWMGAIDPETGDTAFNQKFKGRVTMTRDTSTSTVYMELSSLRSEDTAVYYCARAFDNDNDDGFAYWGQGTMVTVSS VL: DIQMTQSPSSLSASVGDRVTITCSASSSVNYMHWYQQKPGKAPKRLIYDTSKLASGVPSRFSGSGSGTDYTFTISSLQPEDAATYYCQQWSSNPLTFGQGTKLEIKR	no

Query: Quick check: does 5888-153-H3L2 (antibody, human IgG4 S228P, kappa, V domains shown, Humanized antibody) VH: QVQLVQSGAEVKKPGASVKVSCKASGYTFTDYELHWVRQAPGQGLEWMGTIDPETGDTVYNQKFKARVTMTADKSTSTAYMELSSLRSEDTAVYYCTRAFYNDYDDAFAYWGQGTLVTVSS VL: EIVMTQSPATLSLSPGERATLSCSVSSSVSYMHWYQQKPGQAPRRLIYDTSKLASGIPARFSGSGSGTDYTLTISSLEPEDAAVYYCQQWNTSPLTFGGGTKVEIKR have koff under 0.0002 s⁻¹?
Response: yes

Measured values drawn from patent US12624112 for this set.
